Values compiled from ChEMBL document CHEMBL1152168.

Assay summary: Toxicity in mouse assessed as maximum tolerated dose
Format: organism-based
Experimental parameters: in vivo
Reported endpoint: MTD (mg/kg)

                                     smiles  reported_result
0  O=C(NOC[C@H](O)CO)c1ccc(F)c(F)c1Nc1ccc(I)cc1F               25

###

Assay summary: Inhibition of MEK-mediated phosphorylation of myelin basic protein by kinase cascade assay
Property: IC50; scope: individual molecules
Reported endpoint: IC50

>>> print(df.to_string())
                                     smiles  reported_result
0          CONC(=O)c1ccc(F)cc1Nc1ccc(I)cc1C            26 nM
1  Cc1cc(I)ccc1Nc1c(C(=O)NOCC2CC2)ccc(F)c1F             7 nM
2  Cc1cc(I)ccc1Nc1c(C(=O)NOCC2CCCC2)cc(Br)c(F)c1F            23 nM
3      CCONC(=O)c1ccc(F)c(F)c1Nc1ccc(I)cc1C            20 nM
4                O=C(O)c1ccccc1Nc1cccc(I)c1       > 10000 nM
